Target: 15-PGDH/HPGD (Homo sapiens)
Test: hPGDH inhibitor screening biochemical assay
Details: 10 nM enzyme, 15 μM PGE2, 0.25 mM NAD, fluorescence ex/em 340/485 nm
VALUE TYPE: IC50

Here's what some known entries look like.
O=C(c1cnc2c(c1)nnn2-c1ccc(-c2ncn[nH]2)cc1)N1CCC(F)(F)CC1: < 100 nM
O=C(O)c1ccc(-n2nnc3cc(C(=O)N4CCC(F)(F)CC4)ccc32)cc1: 100 to 1000 nM

Q. Provide measured IC50 on 15-PGDH/HPGD (Homo sapiens) for C[C@H]1CCCN(C(=O)c2cnc3c(c2)nnn3-c2ccc(-c3nnc[nH]3)cc2)C1 please.
A. < 100 nM

---

Overview of reported IC50 across a group of compounds:
Biological target: 15-PGDH/HPGD (Homo sapiens)
Sequence (P15428 1-266): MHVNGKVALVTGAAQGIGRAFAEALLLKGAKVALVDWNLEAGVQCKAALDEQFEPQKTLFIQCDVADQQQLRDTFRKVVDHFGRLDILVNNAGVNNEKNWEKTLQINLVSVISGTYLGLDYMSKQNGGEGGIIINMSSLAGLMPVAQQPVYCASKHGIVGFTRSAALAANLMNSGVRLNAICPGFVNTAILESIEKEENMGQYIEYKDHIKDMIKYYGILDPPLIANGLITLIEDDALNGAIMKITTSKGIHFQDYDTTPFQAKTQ
Test: hPGDH inhibitor screening biochemical assay
Details: 10 nM enzyme, 15 μM PGE2, 0.25 mM NAD, fluorescence ex/em 340/485 nm

O=C(c1ccc2c(c1)nnn2-c1ccc(-c2ncn[nH]2)cc1)N1CCC(F)(F)CC1: 100 to 1000 nM
O=C(c1cnc2c(cnn2-c2cc(Cl)cc(-c3nnc[nH]3)c2)c1)N1CCSCC1: < 100 nM
CCOC(=O)Nc1cncc(-n2ncc3cc(C(=O)N4CC[C@H](C(C)(F)F)C4)cnc32)c1: 100 to 1000 nM
O=C(c1ccn2c(-c3ccc(-c4ncn[nH]4)nc3)cnc2c1)N1CCC(F)(F)CC1: 100 to 1000 nM
O=C(c1cnc2c(cnn2-c2ccc(-c3nnc[nH]3)nc2)c1)N1CC2CCCC2C1 (stereo not shown): < 100 nM

Q. Please indicate IC50 recorded for O=C(c1cnc2c(cnn2-c2ccc(-c3nnc[nH]3)cc2)c1)N1CC2CC2C1 (stereo not shown)
A. 100 to 1000 nM

Q. // fetch IC50 given entry O=C(c1cnc2c(cnn2-c2ccc(-c3nnc[nH]3)c(Cl)c2)c1)N1CC[S+]([O-])CC1
A. 100 to 1000 nM

---

pIC50 by entry:
Target: 15-PGDH/HPGD (Homo sapiens, UniProt P15428)
Experiment: hPGDH inhibitor screening biochemical assay
Conditions: 10 nM enzyme, 15 μM PGE2, 0.25 mM NAD, fluorescence ex/em 340/485 nm
pIC50: −log10 of the molar value.

Solved entries:
[O-][S+](CC1CC1)c1cnc2c(cnn2-c2ccc(-c3nnc[nH]3)cc2)c1 (stereo not drawn): 6.00 to 7.00
CCO[C@@H]1CCN(C(=O)c2cnc3c(cnn3-c3ccc(-c4nnc[nH]4)cc3)c2)C1: ≤ 6.00
CCCC[S+]([O-])c1cnc2c(cnn2-c2cncc(NC(=O)OCC)c2)c1 (stereo not drawn): 6.00 to 7.00
CCCC[S+]([O-])c1cnc2c(cnn2-c2cccc(-c3nnc[nH]3)c2)c1 (stereo not drawn): 6.00 to 7.00

Q. State, in one line, measured pIC50 of CCOC(=O)Nc1cncc(-n2ncc3cc(C(=O)N4CCC[C@H](C(F)(F)F)C4)cnc32)c1
A. 6.00 to 7.00

Q. Determine its reported pIC50: O=C(O)c1ccc(-c2cnc3cc(C(=O)N4CCC(F)(F)CC4)ccn23)cc1
A. > 7.00

Q. Specify measured pIC50 for O=C(c1ccc2c(c1)ncn2-c1ccc(-c2ncn[nH]2)cc1)N1CCC(F)(F)CC1 .
A. > 7.00

Q. Return pIC50 for the following compound: O=C(c1ccc2c(cnn2-c2ccc(-c3ncn[nH]3)nc2)c1)N1CCC(F)(F)CC1
A. > 7.00

Q. Write down pIC50 measured for item O=C(c1cnc2c(cnn2-c2ccc(-c3nnc[nH]3)c(Cl)c2)c1)N1CCSCC1
A. > 7.00
